# subject.of.test: Acetylcholinesterase (Homo sapiens)
# Sequence (P22303 whole entry): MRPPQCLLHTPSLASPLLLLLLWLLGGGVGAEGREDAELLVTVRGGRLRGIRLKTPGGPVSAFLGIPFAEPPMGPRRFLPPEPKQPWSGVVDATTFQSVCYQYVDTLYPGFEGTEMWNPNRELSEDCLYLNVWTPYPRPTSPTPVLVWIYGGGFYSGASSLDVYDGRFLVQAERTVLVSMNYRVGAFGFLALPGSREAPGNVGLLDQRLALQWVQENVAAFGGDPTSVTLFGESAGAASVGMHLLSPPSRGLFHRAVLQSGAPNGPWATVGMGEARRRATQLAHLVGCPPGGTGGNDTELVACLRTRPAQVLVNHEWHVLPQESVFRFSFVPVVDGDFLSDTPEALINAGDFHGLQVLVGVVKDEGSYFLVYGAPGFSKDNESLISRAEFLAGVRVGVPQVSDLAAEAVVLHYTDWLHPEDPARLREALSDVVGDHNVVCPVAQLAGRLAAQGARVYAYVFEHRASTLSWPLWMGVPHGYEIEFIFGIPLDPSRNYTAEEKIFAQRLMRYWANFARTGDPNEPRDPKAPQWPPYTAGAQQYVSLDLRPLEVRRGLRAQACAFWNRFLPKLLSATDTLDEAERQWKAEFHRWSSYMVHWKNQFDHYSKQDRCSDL
quantity: IC50 (nM)
Report the value in nM with no unit label.

Here's what some known entries look like.
Task: Name the recorded IC50 of CNC(=O)c1cc2c(OC(=O)N(C)C)cccc2[n+](Cc2ccccc2)c1 , assay system Acetylcholinesterase (Homo sapiens).
Result: 1160

Task: Print Acetylcholinesterase (Homo sapiens) IC50 for COCCNC(=O)c1cc2c(OC(=O)N(C)C)cccc2[n+](C)c1 .
Result: 20

Task: Recall the reported IC50 of CN(C)C(=O)Oc1cccc2c1cc(C(=O)Nc1ccccc1)c[n+]2C on Acetylcholinesterase (Homo sapiens) and write it down.
Result: 30

Task: For Acetylcholinesterase (Homo sapiens), give the measured IC50 of the entry COC(=O)CNC(=O)c1cc2c(OC(=O)N(C)C)cccc2[n+](C)c1
Result: 93

Further cases:
Task: Please tell me the measured IC50 for CNC(=O)c1cc2c(OC(=O)N(C)C)cccc2[n+](C)c1 ; system: Acetylcholinesterase (Homo sapiens).
Result: 77

Task: State recorded IC50 with Acetylcholinesterase (Homo sapiens), entry CC[n+]1cc(C(=O)NC)cc2c(OC(=O)N(C)C)cccc21 , no comment.
Result: 314
